Listed below: inhibition at 10 µM values for each entry.
test system: PBMC; experiment: Antiinflammatory activity in human PBMC assessed as inhibition of LPS-induced IL1-beta production at 10 uM treated 30 mins before LPS challenge measured after 6 hrs by ELISA; type: functional
Give the number; % is assumed, so skip it.

The following compounds have reported results that may help.
COc1ccc(-c2nnc(N/N=C/c3cccs3)nc2-c2ccc(OC)cc2)cc1 :: 81.8
COc1ccc(-c2nnc(N/N=C/c3ccc(Cl)cc3Cl)nc2-c2ccc(OC)cc2)cc1 :: 86.9
COc1ccc(-c2nnc(N/N=C/c3ccc(F)cc3)nc2-c2ccc(OC)cc2)cc1 :: 27.9

Input line: What inhibition at 10 µM value was documented for this compound, "Oc1ccc(-c2nc(-c3ccc(F)cc3)c(-c3ccncc3)[nH]2)cc1" ?
Output line: 93.4

Input line: Fill in: inhibition at 10 µM of "COc1ccc(-c2nnc(N/N=C/c3cccc(OC)c3OC)nc2-c2ccc(OC)cc2)cc1" is ___
Output line: 89.8

Input line: I have this compound here, "COc1ccc(-c2nnc(N/N=C/c3ccc(OC)c(OC)c3)nc2-c2ccc(OC)cc2)cc1" , and I need its recorded inhibition at 10 µM.
Output line: 39.9

Input line: Which inhibition at 10 µM is reported for this compound? "COc1ccc(-c2nnc(N/N=C/c3ccccc3)nc2-c2ccc(OC)cc2)cc1"
Output line: 71.5

Input line: # inhibition at 10 µM lookup, item "COc1ccc(-c2nnc(N/N=C/c3cc4ccccc4[nH]3)nc2-c2ccc(OC)cc2)cc1"
Output line: 82.3

Input line: # inhibition at 10 µM lookup, item "COc1ccc(-c2nnc(N/N=C/c3ccc4c(c3)OCO4)nc2-c2ccc(OC)cc2)cc1"
Output line: 86.9
